src = ChEMBL document CHEMBL5257044

Tested on: A549
assayRemarks: Cytotoxicity against human A549 cells incubated for 24 hrs by MTS assay
Type: functional, cell-based
runParameters: A549, 24 h
readoutType: pIC50
Please keep in mind that pIC50 is minus log10 of the molar concentration; only the number is needed.

Which pIC50 value belongs to `COc1cc2c(O)c3c(c(-c4ccc5c(c4)OCO5)c2cc1OC)C(=O)OC3` ? 5.69

----------
Tested on: NCI-H838
assayRemarks: Cytotoxicity against human NCI-H838 cells incubated for 24 hrs by AlamarBlue staining based analysis
Type: functional, cell-based
runParameters: NCI-H838, 24 h
readoutType: IC50

Which IC50 value belongs to `COc1cc2cc3c(c(-c4ccc5c(c4)OCO5)c2cc1OC)C(=O)OC3` ? 11 µM

And what about the compound `COc1cc2cc(COC(=O)CC(=O)O)c(C(=O)O)c(-c3ccc4c(c3)OCO4)c2cc1OC` ? > 100 µM

And what about the compound `COc1cc2c(O)c3c(c(-c4ccc5c(c4)OCO5)c2cc1OC)C(=O)OC3` ? 16 µM

And what about the compound COc1cc([C@@H]2c3cc4c(cc3[C@@H](O[C@@H]3O[C@@H]5CO[C@@H](C)O[C@H]5[C@H](O)[C@H]3O)[C@H]3COC(=O)[C@H]23)OCO4)cc(OC)c1O [ETOPOSIDE] ? > 100 µM

And what about the compound COc1cc2cc(COC(=O)CC(=O)O)c(C(=O)O[C@@H]3O[C@H](COC(=O)CC(C)(O)CC(=O)O)[C@@H](O)[C@H](O)[C@H]3O)c(-c3ccc4c(c3)OCO4)c2cc1OC (stereo not given in full) ? 16 µM
